B1: TRIM39 (parent)
chain: CKACITRWWEDLERDFPCPVCRKT

# Variants of: B1
# assayProcedure: protein stability index of a GFP-peptide fusion (GPS, HEK-293T) (PSI 1-6); higher = more stable;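 also: lentivirally expressed fusions sorted by FACS into six bins by GFP to DsRed ratio, PSI derived from sequencing read proportions per bin multiplied by bin number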
# conditionNotes: c terminus: a fixed tail appended
metricName: protein stability index
Please state the value as a number alone, without comment.

Query block: Fill in the blank: the reported protein stability index of C18N is ____.
Result block: 1.24

Query block: Can you look up the measured protein stability index of T24P for me?
Result block: 2.78

Query block: Give its protein stability index value. Item: E13N
Result block: 3.61

Query block: Value lookup for protein stability index; key = E13K
Result block: 2.98

Query block: // lookup protein stability index for P17C
Result block: 3.98

Query block: Fill blank: measured protein stability index of the variant T24A is ____.
Result block: 4.07

Query block: What does the record list as protein stability index for K23E ?
Result block: 4.33

Query block: Any idea what its protein stability index is? The variant is T24R
Result block: 3.67

Query block: Need protein stability index of C4I , thanks.
Result block: 1.59

Query block: Using the record for R14Q , report its protein stability index.
Result block: 3.78

Query block: protein stability index lookup needed for E10R , thanks.
Result block: 3.06

This collection of values is drawn from the supplement of paper PMC10567573.
